- procedure.text: yeast display, Sf9 membrane polyspecificity reagent, FACS + sequencing; frameworks hold sequencing errors

| sequence.entry | polyreactivity (PSR sort gate) |
| --- | --- |
| QVQIVESGGGLVQAGGSLRLSCAASGFIIGKYTMGWYRQAPGKEREFVAAIRRSGASTYYADSVKGRFTISRDNAKNTVYLQMNSLKPEDTAVYYCSQAGYSPVYGYWGQGTQVTVSS | high polyreactivity |
| QVQLVESVGGLVQAGGSLRLSCAASGRIFDSYTMGWYRQAPGKERELVAAISRGGGSTYYADSVKGRFTISRDNAKYTVYLQMNSLKPEDTAVYYCAASSYLNSRFKFDYWGQGTQVTVSS | low polyreactivity |
| QVQLVESGGGLVQAGGSLRLSCAASGGTFTRYAMGWYRQAPGKEREFVAAISGSGGSTYYADSVKGRFTISRDNAKNTVYLQMNSLKPEDTAVYYCNKVPVYPPSYYWGQGTQVTVSS | low polyreactivity |
| QVQLVESGGGLVQAGGSLRLSCAASGRTFSLDAMGWYRQAPWKERELVASITDSTGGSTYYADSVKGRFTISRDNAKNTVYLQMNSLKPEDTAVYYCAAQDSQYSDYQWWFGYWGQGTQVTVSS | low polyreactivity |
| QVQLVESGGGLVQAGGSLRLSCAASGYTFGSNAMGWYRQAPGKERELVAAISNGGSTNYADSVKGRFTISRDNAKNTVYLQMTSLKPEDTAVYYCAAASRWHIGYWRYDYWGQGTQVTVSS | low polyreactivity |
| QVQLVESGGGLVQAGGSLRLSCAASGSTFFTNVKGWYRQAPGKERELVAVIRWRGSDTYYADSVKGRFTISRDNAKNTVYLQMKSLKPEDTAFYYCNAKESFYPTTGEQGYSYAYWGQGTQLTVSS | low polyreactivity |
| QVQLVESGGGLVQAGGSLRLSCAASGRIFNIYAMGWYRQAPGKERELVAAIRWNGGSTYYADSVKGRFTISRDNAKNTVYLQMNSLKPEDTAVYYCAARHPLYRVQHEYWGQGTQVTVSS | low polyreactivity |
| QVQLVESGGGLVQAGGSLRLSCAASVITFNYNARGWYRQAPGKERELVARITWSGTRTYYADSVKGRFTMSRDNANNTVYLQMNSLKPEDTGVYYCNAGPYARYYWGQGTQVTVSS | high polyreactivity |
| QVQLVESGVCLVQAGGSLRLSCAASGIIISTYAMGWYRQAPGKERELVAAITWGGTRTNYADSVKGRFTISRDNAKNTVYLQMKSLKPEDTAVYYCAASYVRDSYTHGSWGQGTQVTVSS | low polyreactivity |
| QVQLVESGGGLVQAGGSLRLSCAASGRIFYSNAMGWYRQAPGKERELVAAITRSGGGTYYADSVKGRFTISRDNAKNTVYLQMNSLKPEDTAVYYCARPAFFRSLSTSDDYWGQGTQVTVSS | high polyreactivity |
| QVQLVESGGGLVQAGGSLRLSCAASGFIFRWYAMGWSRQAPGKERELVAAISSGGSTYYADSVKGRFTISRDNAKNTVYLQMNSLKPEDTAVYYCAVRRYSEGDYWGQGTQVTVSS | high polyreactivity |

----------
- procedure.text: yeast display, Sf9 membrane polyspecificity reagent, FACS + sequencing; frameworks hold sequencing errors
quantity.name: polyreactivity (PSR sort gate)

| sequence.entry | quantity.name | result.value |
| --- | --- | --- |
| QVQLVESGGGLVHAGGSLRLSCAASGGTFTYYTMGWYRKAPGKERELVARISKNGGRTYYADSVKGRFTLSRDNAKNTLYLKMISLKPEDTAVYYCNAAGRPYDFSGGRTMEYWGQGTQVTVST | polyreactivity (PSR sort gate) | high polyreactivity |
| QVQLVESGGGLVQAGGSLRLSCAASGRILYRYAMGWYRQATGKERELVAAISWSGGSTYYADSVKGRFTISRDNAKNSVYLQMNSLKPEDTAVYYCAARYKRAYSRDYWGQGTQVTVSS | polyreactivity (PSR sort gate) | high polyreactivity |
| QVQLVESGGGLVQAGGSLRLSCAASGFTFRRNGRGWYRPAPGKERELVAAIRGSDGSTYYADSVKGRFTISRDTAKNTVYLLMNSLKPADTAVYYCIVVGKGLYRKMGYWGQGTQVTVSS | polyreactivity (PSR sort gate) | high polyreactivity |
| QVQLVESGGGLVQAGGSLRLSCAASGFTLYPYGMGWYRQAAGKERELVASISSRVGRTYYADSVKGRFTISRDNAKNTVYLQMNSLKPEDTAVYYCAASRLVRYQSRYASWGQGTQVTVSS | polyreactivity (PSR sort gate) | high polyreactivity |
| QVHLVESGGGLDQAGGSLRLSCAASGSTFSGYAMGWYRQAPGKERELVAAISSTGRTYYADSVKGRFTISRDNAKNTVYLQMNSLIPEDTALYYCAAKRYTVYGHKYEYWGQGTQVTVSS | polyreactivity (PSR sort gate) | high polyreactivity |

Values compiled from the nanobody polyreactivity screen of Harvey et al. (2022).
